Origin of measurements: patent EP4631938A1

For each record, write down the corresponding pKi.
- assayed_system: human recombinant 5-HT2C receptor (Homo sapiens, UniProt P28335)
- Construct: expressed in transfected cells; host or cells: Jump-In HEK cells (membrane preparation)
- Sequence (P28335 33-458): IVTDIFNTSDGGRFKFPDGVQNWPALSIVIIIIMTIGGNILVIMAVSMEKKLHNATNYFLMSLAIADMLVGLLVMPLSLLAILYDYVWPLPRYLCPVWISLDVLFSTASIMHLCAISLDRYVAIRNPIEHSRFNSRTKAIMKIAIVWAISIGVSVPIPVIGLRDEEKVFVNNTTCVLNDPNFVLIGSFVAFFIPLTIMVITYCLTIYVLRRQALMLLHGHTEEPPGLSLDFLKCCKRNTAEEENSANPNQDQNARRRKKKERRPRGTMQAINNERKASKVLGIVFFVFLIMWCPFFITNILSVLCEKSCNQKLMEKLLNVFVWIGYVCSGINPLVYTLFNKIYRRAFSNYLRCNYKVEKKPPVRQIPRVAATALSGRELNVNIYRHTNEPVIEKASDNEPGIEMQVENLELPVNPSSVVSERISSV
- assay_info: Test Example 2-2: 5-HT2C receptor binding inhibition test ([3H]-Mesulergine; non-specific ligand Ketanserin)
- cond: non-specific binding with 500 µmol/L Ketanserin, 37°C, 2 hours
- Description: The Kd value is calculated when the lot of the cell membrane is changed. […] The radioactivity of [^3H]-Mesulergine bound to the 5-HT2C receptor is measured using Microbeta2 (PerkinElmer) at a measurement time of 1 min/well. The Saturation curve is drawn from the measured value, and the Kd value is calculated from the slope of the Scatchard Plot. […]
By convention, pKi is the negative base-10 log of a molar concentration.

Form field pKi for item Cn1ncc(Br)c1-c1cc(Nc2ccc(OC(F)(F)F)cc2)ccc1OCCO on human recombinant 5-HT2C receptor (Homo sapiens, UniProt P28335): 8.88

Form field pKi for item Cn1ncc(Br)c1-c1cc(Nc2ncc(Cl)cn2)cnc1OCCO on human recombinant 5-HT2C receptor (Homo sapiens, UniProt P28335): 8.30

Form field pKi for item Cn1ncc(Br)c1-c1cc(Nc2ccc(Cl)cn2)ccc1OCCO on human recombinant 5-HT2C receptor (Homo sapiens, UniProt P28335): 9.24

Form field pKi for item Cn1ncc(Br)c1-c1cc(Nc2ccc(C3CC3)cn2)cnc1OCCO on human recombinant 5-HT2C receptor (Homo sapiens, UniProt P28335): 9.34

Form field pKi for item OCCOc1ccc(Nc2ncc(C(F)(F)F)cc2F)cc1-c1ccncc1Cl on human recombinant 5-HT2C receptor (Homo sapiens, UniProt P28335): 8.34

Form field pKi for item Cn1ncc(Cl)c1-c1cc(Nc2ncc(Cl)cn2)ccc1OCCO on human recombinant 5-HT2C receptor (Homo sapiens, UniProt P28335): 8.32

Form field pKi for item Cn1ncc(Br)c1-c1cc(Nc2ncc(Cl)cc2F)c(F)cc1OCCO on human recombinant 5-HT2C receptor (Homo sapiens, UniProt P28335): 9.28

Form field pKi for item Cn1ncc(Br)c1-c1cc(Nc2nc3ccccc3s2)cnc1OCCO on human recombinant 5-HT2C receptor (Homo sapiens, UniProt P28335): 9.22

Form field pKi for item Cn1ncc(Br)c1-c1cc(Nc2ncc(-c3ccccc3)s2)ccc1OCCO on human recombinant 5-HT2C receptor (Homo sapiens, UniProt P28335): 9.61

Form field pKi for item Cn1ncc(Cl)c1-c1cc(Nc2ncc(Cl)cc2F)ccc1OCCO on human recombinant 5-HT2C receptor (Homo sapiens, UniProt P28335): 9.56

Form field pKi for item Cn1ncc(Br)c1-c1nc(Nc2ccc(C(F)(F)F)cn2)ccc1OCCO on human recombinant 5-HT2C receptor (Homo sapiens, UniProt P28335): 9.03

Form field pKi for item Cn1ncc(Br)c1-c1cc(Nc2ncc(F)cc2F)ncc1OCCO on human recombinant 5-HT2C receptor (Homo sapiens, UniProt P28335): 8.52

Form field pKi for item Cc1noc(C)c1-c1cc(Nc2ncc(C(F)(F)F)cc2F)ccc1OCCO on human recombinant 5-HT2C receptor (Homo sapiens, UniProt P28335): 8.85

Form field pKi for item Cc1ncnc(C)c1-c1cc(Nc2ncc(C(F)(F)F)cc2F)cnc1OCCO on human recombinant 5-HT2C receptor (Homo sapiens, UniProt P28335): 7.88

Form field pKi for item COc1ccc2nc(Nc3ccc(OCCO)c(-c4c(Br)cnn4C)c3)sc2c1 on human recombinant 5-HT2C receptor (Homo sapiens, UniProt P28335): 9.26

Form field pKi for item Cn1ncc(C#N)c1-c1cc(Nc2ncc(C(F)(F)F)cc2F)c(Cl)cc1OCCO on human recombinant 5-HT2C receptor (Homo sapiens, UniProt P28335): 7.81

Form field pKi for item Cn1ncc(Br)c1-c1cc(Nc2ncc(F)cc2F)c(F)cc1OCCO on human recombinant 5-HT2C receptor (Homo sapiens, UniProt P28335): 8.96

Form field pKi for item Cc1ncnc(C)c1-c1cc(Nc2ncc(C(F)(F)F)cc2F)ccc1OCCO on human recombinant 5-HT2C receptor (Homo sapiens, UniProt P28335): 8.77

Form field pKi for item Cn1ncc(Br)c1-c1cc(Nc2ccc(C(F)(F)F)cn2)cnc1OCCO on human recombinant 5-HT2C receptor (Homo sapiens, UniProt P28335): 9.34

Form field pKi for item Cn1ncc(Br)c1-c1cc(Nc2ncc(C(F)(F)F)cn2)c(F)cc1OCCO on human recombinant 5-HT2C receptor (Homo sapiens, UniProt P28335): 9.04

Form field pKi for item Cc1cnn(C)c1-c1cc(Nc2ccc(C(F)(F)F)cn2)ccc1OCCO on human recombinant 5-HT2C receptor (Homo sapiens, UniProt P28335): 9.03

Form field pKi for item Cc1nn(C)c(C)c1-c1cc(Nc2ncc(C(F)(F)F)cc2F)ccc1OCCO on human recombinant 5-HT2C receptor (Homo sapiens, UniProt P28335): 7.32

Form field pKi for item Cn1ncc(Br)c1-c1cc(Nc2ncc(C(F)(F)F)cn2)ccc1OCCO on human recombinant 5-HT2C receptor (Homo sapiens, UniProt P28335): 9.22

Form field pKi for item COc1ncccc1-c1cc(Nc2ncc(C(F)(F)F)cc2F)ccc1OCCO on human recombinant 5-HT2C receptor (Homo sapiens, UniProt P28335): 8.05

Form field pKi for item Cc1ncccc1-c1cc(Nc2ncc(C(F)(F)F)cc2F)ccc1OCCO on human recombinant 5-HT2C receptor (Homo sapiens, UniProt P28335): 8.14

Form field pKi for item Cn1ncc(Br)c1-c1cc(Nc2ccc(Cl)cn2)cnc1OCCO on human recombinant 5-HT2C receptor (Homo sapiens, UniProt P28335): 9.13

Form field pKi for item Cn1ncc(Br)c1-c1cc(Nc2ccc(C3CCC3)cn2)ccc1OCCO on human recombinant 5-HT2C receptor (Homo sapiens, UniProt P28335): 9.49

Form field pKi for item Cc1cnn(C)c1-c1cc(Nc2ncc(Cl)cc2F)cnc1OCCO on human recombinant 5-HT2C receptor (Homo sapiens, UniProt P28335): 8.39

Form field pKi for item Cn1ncc(Br)c1-c1cc(Nc2nc3ccc(Cl)cc3s2)ccc1OCCO on human recombinant 5-HT2C receptor (Homo sapiens, UniProt P28335): 9.74

Form field pKi for item Cn1cnc(F)c1-c1cc(Nc2ncc(C(F)(F)F)cc2F)ccc1OCCO on human recombinant 5-HT2C receptor (Homo sapiens, UniProt P28335): 8.14

Form field pKi for item Cn1cnc(Br)c1-c1cc(Nc2ncc(C(F)(F)F)cc2F)ccc1OCCO on human recombinant 5-HT2C receptor (Homo sapiens, UniProt P28335): 9.58

Form field pKi for item Cc1n[nH]c(C)c1-c1cc(Nc2ncc(C(F)(F)F)cc2F)ccc1OCCO on human recombinant 5-HT2C receptor (Homo sapiens, UniProt P28335): 8.44

Form field pKi for item Cn1ncc(Cl)c1-c1cc(Nc2ncc(Cl)cc2F)cnc1OCCO on human recombinant 5-HT2C receptor (Homo sapiens, UniProt P28335): 9.56

Form field pKi for item Cc1cnn(C)c1-c1cc(Nc2ncc(Cl)cc2F)ncc1OCCO on human recombinant 5-HT2C receptor (Homo sapiens, UniProt P28335): 8.08

Form field pKi for item Cn1ncc(Br)c1-c1cc(Nc2nccn3c(Br)cnc23)ccc1OCCO on human recombinant 5-HT2C receptor (Homo sapiens, UniProt P28335): 8.33

* * *

For each record, write down the corresponding pKi.
- assayed_system: human recombinant 5-HT2C receptor (Homo sapiens)
- Construct: expressed in transfected cells; host or cells: Jump-In HEK cells (membrane preparation)
- assay_info: Test Example 2: 5-HT2C receptor binding inhibition test ([3H]-Mesulergine; non-specific ligand Serotonin HCl)
- cond: human serotonin 5-HT2C receptor binding activity
By convention, pKi is the negative base-10 log of a molar concentration.

Looking up COCc1nc(C)c(-c2cc(Nc3ncc(C4CC4(F)F)cc3Cl)ncc2OCCO)c(C)n1 (racemic) , I found its pKi recorded as 8.22

Looking up Cc1cnn(C)c1-c1nc(Nc2ccc(Cl)cc2F)c(F)cc1OCCO , I found its pKi recorded as 8.21

Looking up COCc1nc(C)c(-c2nc(Nc3ccc(OC(F)(F)F)c(C)n3)c(F)cc2OCCO)c(C)n1 , I found its pKi recorded as 8.74

Looking up Cc1nc(COC(C)C)nc(C)c1-c1cc(Nc2ncc(C(F)(F)F)cc2Cl)ncc1OCCO , I found its pKi recorded as 8.57

* * *

For each record, write down the corresponding Ki.
- assayed_system: human recombinant 5-HT2A receptor (Homo sapiens)
- Construct: expressed in transfected cells; host or cells: Jump-In HEK cells (membrane preparation)
- Sequence (P28223 whole entry): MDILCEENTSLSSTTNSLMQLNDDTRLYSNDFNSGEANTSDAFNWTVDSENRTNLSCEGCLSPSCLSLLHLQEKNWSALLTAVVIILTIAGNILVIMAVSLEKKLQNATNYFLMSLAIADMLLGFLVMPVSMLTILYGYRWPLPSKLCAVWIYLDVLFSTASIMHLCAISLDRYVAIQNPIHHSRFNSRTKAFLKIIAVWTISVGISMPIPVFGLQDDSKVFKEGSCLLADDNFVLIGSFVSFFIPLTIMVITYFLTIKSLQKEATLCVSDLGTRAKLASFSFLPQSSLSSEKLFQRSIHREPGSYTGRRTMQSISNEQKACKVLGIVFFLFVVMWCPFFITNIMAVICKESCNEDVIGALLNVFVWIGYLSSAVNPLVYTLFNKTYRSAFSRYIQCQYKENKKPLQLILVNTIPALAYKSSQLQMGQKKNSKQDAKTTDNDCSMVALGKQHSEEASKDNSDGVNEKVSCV
- assay_info: Test Example 1-2: 5-HT2A receptor binding inhibition test ([3H]-Ketanserin; non-specific ligand Ketanserin)
- cond: [3H]-Ketanserin; non-specific binding with 500 µmol/L Ketanserin; room temperature (25°C), 1.5 hours; read-out: h 5-HT2A Ki
- Protocol: The Kd value is calculated when the lot of the cell membrane is changed. […] The radioactivity of [^3H]-Ketanserin bound to the 5-HT2A receptor is measured using Microbeta2 (PerkinElmer) at a measurement time of 1 min/well. The Saturation curve is drawn from the measured value, and the Kd value is calculated from the slope of the Scatchard Plot. […]
Respond numerically; units are pM and should not be typed.

Looking up Cn1ncc(Cl)c1-c1cc(Nc2ncc(Cl)cn2)c(F)cc1OCCO , I found its Ki recorded as 395

Looking up Cn1ncc(Cl)c1-c1cc(Nc2ncc(C(F)(F)F)cc2F)ccc1OCCO , I found its Ki recorded as 195

Looking up Cn1ncc(Br)c1-c1nc(Nc2ccc(C(F)(F)F)nc2)c(F)cc1OCCO , I found its Ki recorded as 438

Looking up Cc1nc(C)c(-c2cc(Nc3ncc(C(F)(F)F)cc3C)ncc2OCCO)c(C)n1 , I found its Ki recorded as 1200

Looking up COCc1nc(C)c(-c2cc(Nc3ccc(C4CC(F)(F)C4)cn3)ncc2OCCO)c(C)n1 , I found its Ki recorded as 2310

Looking up COCc1nc(C)c(-c2nc(Nc3ccc(C(F)(F)F)cn3)c(F)cc2OCCO)c(C)n1 , I found its Ki recorded as 3490

Looking up Cn1ncc(Cl)c1-c1nc(Nc2ccc(C(F)(F)F)cn2)c(F)cc1OCCO , I found its Ki recorded as 226

Looking up COCc1nc(C)c(-c2cc(Nc3ncc(OC(C)(F)F)cc3Cl)ncc2OCCO)c(C)n1 , I found its Ki recorded as 1880
